Subject of test: Sentrin-specific protease 8 (Homo sapiens)
Assay summary: blockers of SENP8 deneddylase activity – biochemical, fluorescence, Nedd8 protein substrate, uHTS, primary screen (AID 602440)
Condition description: recombinant SENP8, Nedd8 substrate fluorescence; at 20 µM; active compounds read high
Hit rate of the full screen: of about 360,000 compounds, about 2,300 (0.64%) were called active. What follows is part of a selection rich in actives, with near analogues and random picks from the rest.
Readout kind: inhibition (%)
Respond with the bare value in %.

Please review the entries below; each comes with its answer.
Supply reported inhibition belonging to this molecule: COC(=O)C1=C(C(=O)OC)C(c2cc([N+](=O)[O-])ccc2O)c2sc(=O)[nH]c2S1 (centres undefined) 38.8

Supply reported inhibition belonging to this molecule: CCN(CC(=O)NC(C)C)C(=O)c1cc(S(=O)(=O)N2CCCCC2)ccc1N1CCCCC1 2.8

Supply reported inhibition belonging to this molecule: Cc1ccc(C(=O)COC(=O)CCCC(=O)NC2CCCCC2)cc1[N+](=O)[O-] 19.6

***
Supply reported inhibition belonging to this molecule: Cn1c(C(=O)O)ccc1S(=O)(=O)N(Cc1ccccc1)Cc1ccccc1 -7

Supply reported inhibition belonging to this molecule: CCc1ccccc1NC(=O)NCCN1CCCCC1 12.7

Supply reported inhibition belonging to this molecule: CCC(=O)N1CCC(C(N)=O)(N2CCCCC2)CC1 23.1

Supply reported inhibition belonging to this molecule: COc1ccc([C@H]2N[C@]3(CCCN(Cc4ccco4)C3=O)[C@H]3C(=O)N(C)C(=O)[C@@H]23)cc1 -14

Supply reported inhibition belonging to this molecule: C/C(N)=C(/C#N)C(=O)COC(=O)c1cc(-c2cccc(Br)c2)nc2ccccc12 -25.4

Supply reported inhibition belonging to this molecule: O=C(O)CC1S/C(=N\N=C/c2ccccc2O)N(c2ccc(O)cc2)C1=O (centres undefined) -14.4
